Numbers sourced from ChEMBL document CHEMBL1811802.

Quick reference for pIC50 among some compounds
- experimental.target: Adenosine kinase (Homo sapiens)
- Sequence (P55263 whole entry): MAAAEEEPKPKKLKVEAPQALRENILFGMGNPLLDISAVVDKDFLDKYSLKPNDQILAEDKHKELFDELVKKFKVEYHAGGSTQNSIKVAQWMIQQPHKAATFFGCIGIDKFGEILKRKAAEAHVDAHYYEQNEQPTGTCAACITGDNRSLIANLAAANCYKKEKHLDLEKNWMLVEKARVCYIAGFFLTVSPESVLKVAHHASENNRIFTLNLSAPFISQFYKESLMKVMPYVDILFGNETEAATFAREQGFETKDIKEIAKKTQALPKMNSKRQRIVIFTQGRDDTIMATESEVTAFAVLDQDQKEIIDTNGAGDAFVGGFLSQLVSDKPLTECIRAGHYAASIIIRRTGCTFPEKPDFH
pIC50: −log10 of the molar value.

As a guide, the following entries are already answered.
| mol | pIC50 |
| --- | --- |
| Nc1ncnc2c1c(-c1cccs1)cn2[C@@H]1O[C@H](CO)[C@@H](O)[C@H]1O | < 5.30 |
| C#Cc1cn([C@@H]2O[C@H](CO)[C@@H](O)[C@H]2O)c2ncnc(N)c12 | 6.70 |
| Nc1ncnc2c1c(-c1cc3ccccc3o1)cn2[C@@H]1O[C@H](CO)[C@@H](O)[C@H]1O | < 5.00 |
| Nc1ncnc2c1c(-c1cc[nH]c1)cn2[C@@H]1O[C@H](CO)[C@@H](O)[C@H]1O | < 5.30 |
| Nc1ncnc2c1c(-c1c[nH]cn1)cn2[C@@H]1O[C@H](CO)[C@@H](O)[C@H]1O | < 5.00 |

Query Nc1ncnc2c1c(-c1ccccc1)cn2[C@@H]1O[C@H](CO)[C@@H](O)[C@H]1O yields pIC50 of < 5.30

Query COc1ccc(-c2cn([C@@H]3O[C@H](CO)[C@@H](O)[C@H]3O)c3ncnc(N)c23)cc1 yields pIC50 of < 5.70

----------
- Tested on: NCI-H23
- test: Cytostatic activity against human NCI-H23 cells after 5 days by SRB assay
- Format: functional
- measurement.context: NCI-H23, 120 h
outcome.measure: GI50 (nM)

| mol | experimental.target | unit.name | GI50 |
| --- | --- | --- | --- |
| Nc1ncnc2c1c(-c1ccoc1)cn2[C@@H]1O[C@H](CO)[C@@H](O)[C@H]1O | NCI-H23 | nM | 198 |
| Nc1ncnc2c1c(-c1cc[nH]c1)cn2[C@@H]1O[C@H](CO)[C@@H](O)[C@H]1O | NCI-H23 | nM | 33 |
| Nc1ncnc2c1c(-c1ccc3ccccc3c1)cn2[C@@H]1O[C@H](CO)[C@@H](O)[C@H]1O | NCI-H23 | nM | 5350 |

a = Nc1ncnc2c1c(-c1cc3ccccc3o1)cn2[C@@H]1O[C@H](CO)[C@@H](O)[C@H]1O
b = Nc1ncnc2c1c(-c1ccsc1)cn2[C@@H]1O[C@H](CO)[C@@H](O)[C@H]1O
## Input Given the listed items, does a or b have the lesser reported GI50? Identify your pick by its label.
## Output b
(b: 73 nM, a: 5400 nM)

----------
- Test system: A549
- test: Cytostatic activity against human A549 cells after 5 days by SRB assay
- Type: functional
- measurement.context: A549, 120 h
outcome.measure: GI50 (nM)

As a guide, the following entries are already answered.
| mol | observed.value |
| --- | --- |
| Nc1ncnc2c1c(-c1cc3ccccc3o1)cn2[C@@H]1O[C@H](CO)[C@@H](O)[C@H]1O | 7020 |
| Nc1ncnc2c1c(-c1cccs1)cn2[C@@H]1O[C@H](CO)[C@@H](O)[C@H]1O | 7 |

A = Nc1ncnc2c1c(-c1ccoc1)cn2[C@@H]1O[C@H](CO)[C@@H](O)[C@H]1O
B = Nc1ncnc2c1c(-c1ccsc1)cn2[C@@H]1O[C@H](CO)[C@@H](O)[C@H]1O
## Input Given the listed items, does A or B have the lesser reported GI50? Identify your pick by its label.
## Output B

----------
- System: MDA-MB-231
- test: Cytotoxicity against human MDA-MB-231 cells after 3 days by MTT assay
- Format: functional, cell-based
- measurement.context: MDA-MB-231, 72 h
Quick reference for pIC50 among some compounds
// pIC50 here means minus log10 of the molar concentration (mol/L)

As a guide, the following entries are already answered.
| compound | experimental.target | observed.value |
| --- | --- | --- |
| Nc1ncnc2c1c(-c1ccsc1)cn2[C@@H]1O[C@H](CO)[C@@H](O)[C@H]1O | MDA-MB-231 | 7.09 |
| Nc1ncnc2c1c(-c1cccs1)cn2[C@@H]1O[C@H](CO)[C@@H](O)[C@H]1O | MDA-MB-231 | 7.59 |
| Nc1ncnc2c1c(-c1cc[nH]c1)cn2[C@@H]1O[C@H](CO)[C@@H](O)[C@H]1O | MDA-MB-231 | 7.57 |
| Nc1ncnc2c1c(-c1ccoc1)cn2[C@@H]1O[C@H](CO)[C@@H](O)[C@H]1O | MDA-MB-231 | 6.90 |

Here's the next entry for you.
Measured on MDA-MB-231, Nc1ccn([C@@H]2O[C@H](CO)[C@@H](O)C2(F)F)c(=O)n1 [GEMCITABINE] has a documented pIC50 of 6.61

----------
Quick reference for IC50 among some molecules
- Tested on: HeLa
- test: Cytotoxicity against human HeLa cells after 3 days by MTT assay
- Format: functional, cell-based
- measurement.context: 72 h
// note: answer is a bare numeric in nM

As a guide, the following entries are already answered.
| molecule | observed.value |
| --- | --- |
| Nc1ncnc2c1c(-c1ccoc1)cn2[C@@H]1O[C@H](CO)[C@@H](O)[C@H]1O | 350 |
| Nc1ncnc2c1c(-c1ccsc1)cn2[C@@H]1O[C@H](CO)[C@@H](O)[C@H]1O | 124 |
| Nc1ncnc2c1c(-c1cccs1)cn2[C@@H]1O[C@H](CO)[C@@H](O)[C@H]1O | 33 |
| Nc1ccn([C@@H]2O[C@H](CO)[C@@H](O)C2(F)F)c(=O)n1 [GEMCITABINE] | 4120 |
| Nc1ncnc2c1c(-c1cn[nH]c1)cn2[C@@H]1O[C@H](CO)[C@@H](O)[C@H]1O | 185 |

Measured on HeLa, Nc1ncnc2c1c(-c1cc[nH]c1)cn2[C@@H]1O[C@H](CO)[C@@H](O)[C@H]1O has a documented IC50 of 40

----------
- Tested on: NCI-H23
- test: Cytostatic activity against human NCI-H23 cells after 5 days by SRB assay
- Format: functional
- measurement.context: NCI-H23, 120 h
outcome.measure: GI50 (nM)

| compound | GI50, nM |
| --- | --- |
| Nc1ncnc2c1c(-c1cccs1)cn2[C@@H]1O[C@H](CO)[C@@H](O)[C@H]1O | 3.7 |

a = Nc1ncnc2c1c(-c1c[nH]cn1)cn2[C@@H]1O[C@H](CO)[C@@H](O)[C@H]1O
b = Nc1nc(Cl)nc2c1ncn2[C@@H]1O[C@H](CO)[C@@H](O)[C@@H]1F [CLOFARABINE]
c = COc1cccc2c1C(=O)c1c(O)c3c(c(O)c1C2=O)C[C@@](O)(C(=O)CO)C[C@@H]3O[C@H]1C[C@H](N)[C@H](O)[C@H](C)O1 [DOXORUBICIN]
## Input // sort entries: GI50, high to low Please list each label once, in the requested order.
## Output b, c, a

----------
Quick reference for GI50 among some molecules
- test: Cytostatic activity against human Hs578 cells after 5 days by SRB assay
- Assay type: functional
- measurement.context: Hs578, 120 h
// note: answer is a bare numeric in µM

| mol | GI50 [µM] |
| --- | --- |
| C#Cc1cn([C@@H]2O[C@H](CO)[C@@H](O)[C@H]2O)c2ncnc(N)c12 | 0.001 |

Query Nc1ncnc2c1c(-c1ccc[nH]1)cn2[C@@H]1O[C@H](CO)[C@@H](O)[C@H]1O yields GI50 of 0.113

Query COc1cccc2c1C(=O)c1c(O)c3c(c(O)c1C2=O)C[C@@](O)(C(=O)CO)C[C@@H]3O[C@H]1C[C@H](N)[C@H](O)[C@H](C)O1 yields GI50 of 0.006

Query Nc1ncnc2c1c(-c1cc3ccccc3o1)cn2[C@@H]1O[C@H](CO)[C@@H](O)[C@H]1O yields GI50 of 6.73

Query Nc1ncnc2c1c(-c1cccs1)cn2[C@@H]1O[C@H](CO)[C@@H](O)[C@H]1O yields GI50 of 0.012

Query Nc1ncnc2c1c(-c1cc[nH]n1)cn2[C@@H]1O[C@H](CO)[C@@H](O)[C@H]1O yields GI50 of 0.008

Query Nc1ncnc2c1c(-c1c[nH]nn1)cn2[C@@H]1O[C@H](CO)[C@@H](O)[C@H]1O yields GI50 of 0.003

Query Nc1ncnc2c1c(-c1ccco1)cn2[C@@H]1O[C@H](CO)[C@@H](O)[C@H]1O yields GI50 of 0.017

Query Nc1ncnc2c1c(-c1cn[nH]c1)cn2[C@@H]1O[C@H](CO)[C@@H](O)[C@H]1O yields GI50 of 0.012

Query CSc1ccc(-c2cn([C@@H]3O[C@H](CO)[C@@H](O)[C@H]3O)c3ncnc(N)c23)cc1 yields GI50 of 1.97

Query Nc1ncnc2c1c(-c1cc[nH]c1)cn2[C@@H]1O[C@H](CO)[C@@H](O)[C@H]1O yields GI50 of 0.0044

Query Nc1nc(Cl)nc2c1ncn2[C@@H]1O[C@H](CO)[C@@H](O)[C@@H]1F yields GI50 of 1.24

Query COc1ccc(-c2cn([C@@H]3O[C@H](CO)[C@@H](O)[C@H]3O)c3ncnc(N)c23)cc1 yields GI50 of 0.811

Query Nc1ncnc2c1c(-c1ccc3ccccc3c1)cn2[C@@H]1O[C@H](CO)[C@@H](O)[C@H]1O yields GI50 of 2.16
